# Tested on: COLO 205 colon
# protocol: NCI tumour cell line growth inhibition, 48 h
observed_property: GI50

Here's what some known entries look like.
INSERT INTO results (structure_string, experimental_target, observed_value) VALUES
  ('NC(=O)c1cccc(-n2ccc3cc(NC(=O)Nc4ccc(N5CCOCC5)c(C(F)(F)F)c4)ccc32)n1', 'COLO 205 colon', '2060 nM'),
  ('COc1cc2c3c(n(CCCN4CCCCC4)c(=O)c2cc1OC)-c1cc2c(cc1C3=O)OCO2', 'COLO 205 colon', '1110 nM'),
  ('Cc1ncn(-c2ccc(/C=N/Nc3ccnc4cc(Cl)ccc34)cc2)c1C', 'COLO 205 colon', '1740 nM');

Shift focus to the following entry.
(Q) Under COLO 205 colon: GI50 value of `O=C(N/N=C/c1ccc(Cl)s1)c1[nH]c2ccc(Br)cc2c1-c1ccccc1` ?
(A) 488 nM

---

# Test system: LOX IMVI melanoma
# protocol: NCI tumour cell line growth inhibition, 48 h; in the data active means GI50 below about 0.43 µM; inactive means the rest
Please state which outcome applies, choosing from active, inactive

(Q) Fill in: this test's call for `COc1cc2c3c(n(CCCN4CCCCC4)c(=O)c2cc1OC)-c1cc2c(cc1C3=O)OCO2` is ___
(A) inactive

(Q) Now the compound `Cc1ncn(-c2ccc(/C=N/Nc3ccnc4cc(Cl)ccc34)cc2)c1C`
(A) inactive

(Q) Now the compound `O=C(N/N=C/c1ccc(Cl)s1)c1[nH]c2ccc(Br)cc2c1-c1ccccc1`
(A) active

(Q) Now the compound `CCOC(=O)c1c(NCC(=O)Nc2cccc([N+](=O)[O-])c2)sc(C(C)=O)c1C`
(A) active
